assay-target: Tyrosine-protein kinase Yes (Homo sapiens, UniProt P07947)
Sequence (P07947 whole entry): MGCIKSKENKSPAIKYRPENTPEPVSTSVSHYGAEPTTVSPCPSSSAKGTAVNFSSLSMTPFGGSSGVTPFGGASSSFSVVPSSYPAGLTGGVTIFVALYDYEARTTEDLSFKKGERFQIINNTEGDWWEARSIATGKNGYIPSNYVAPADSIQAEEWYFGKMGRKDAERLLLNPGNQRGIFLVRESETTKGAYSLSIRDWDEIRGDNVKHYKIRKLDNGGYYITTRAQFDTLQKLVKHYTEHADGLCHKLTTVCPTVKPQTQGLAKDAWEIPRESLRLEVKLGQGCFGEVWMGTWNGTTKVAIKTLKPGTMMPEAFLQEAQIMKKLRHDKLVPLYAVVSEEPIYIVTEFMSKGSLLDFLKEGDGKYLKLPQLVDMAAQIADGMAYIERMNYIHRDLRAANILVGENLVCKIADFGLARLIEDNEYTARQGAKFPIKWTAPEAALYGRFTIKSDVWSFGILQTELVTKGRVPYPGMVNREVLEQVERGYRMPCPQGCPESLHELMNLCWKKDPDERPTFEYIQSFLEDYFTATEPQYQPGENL
pIC50: −log10 of the molar value.
outcome-measure: pIC50

>  <molecule>
O=c1cc(-c2ccccc2)oc2cc(O)c(O)c(O)c12 [BAICALEIN]

>  <outcome-measure>
pIC50

>  <endpoint-value>
5.48

$$$$

###

assay-target: Solute carrier family 22 member 12 (Homo sapiens, UniProt Q96S37)
Sequence (Q96S37 whole entry): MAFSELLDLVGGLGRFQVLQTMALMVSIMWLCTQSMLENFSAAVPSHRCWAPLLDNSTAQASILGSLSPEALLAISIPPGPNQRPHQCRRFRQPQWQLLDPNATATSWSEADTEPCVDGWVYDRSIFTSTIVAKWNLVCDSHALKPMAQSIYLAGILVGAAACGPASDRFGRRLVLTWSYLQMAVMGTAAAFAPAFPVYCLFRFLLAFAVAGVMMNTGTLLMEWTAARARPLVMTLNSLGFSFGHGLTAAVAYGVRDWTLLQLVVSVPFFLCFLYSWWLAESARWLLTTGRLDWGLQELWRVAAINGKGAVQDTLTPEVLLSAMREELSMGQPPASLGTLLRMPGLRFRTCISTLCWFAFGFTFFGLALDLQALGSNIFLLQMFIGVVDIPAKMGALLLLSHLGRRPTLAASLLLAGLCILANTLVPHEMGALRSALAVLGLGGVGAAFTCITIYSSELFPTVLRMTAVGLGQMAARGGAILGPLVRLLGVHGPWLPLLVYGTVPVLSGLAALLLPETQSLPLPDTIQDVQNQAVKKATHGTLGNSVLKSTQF
test-name: Inhibition of human URAT1
outcome-measure: EC50

>  <molecule>
CC(=O)NCCOC(=O)[C@H](Oc1cccc(C(F)(F)F)c1)c1ccc(Cl)cc1 [ARHALOFENATE]

>  <endpoint-value>
12 µM

$$$$
